Provenance of the data: patent US8772323B2

- SYSTEM_NAME: UniProt Q8TDV5
- Sequence (Q8TDV5 whole entry): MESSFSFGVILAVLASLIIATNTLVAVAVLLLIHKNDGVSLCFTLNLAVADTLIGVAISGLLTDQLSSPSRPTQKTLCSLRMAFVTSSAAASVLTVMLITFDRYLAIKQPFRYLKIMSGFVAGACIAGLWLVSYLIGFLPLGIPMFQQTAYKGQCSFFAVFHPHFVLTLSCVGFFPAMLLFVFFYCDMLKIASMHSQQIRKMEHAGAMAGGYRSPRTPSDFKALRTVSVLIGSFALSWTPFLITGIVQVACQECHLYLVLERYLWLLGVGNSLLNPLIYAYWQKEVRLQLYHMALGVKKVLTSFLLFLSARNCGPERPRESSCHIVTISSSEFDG
- PROCEDURE_TEXT: AlphaScreen cAMP assay in Min-6/hGPR119 cells (GPR119 activation, intracellular cAMP)
- CONDITION_INFO: MIN6 cells stably transfected with human GPR119; 45 minutes' incubation at RT; AlphaScreen cAMP Assay Kit
MEASURED_PROPERTY: EC50 (nM)

A selection of reference data follows.
[
  {
    "COMPOUND": "CO[C@@H]1CC(=O)NN=C1c1ccc2nc(-c3ccccc3)oc2c1 [Example 27]",
    "UNIT": "nM",
    "EC50": 444
  },
  {
    "COMPOUND": "CCC1CC(=O)NN=C1c1ccc2nc(-c3cccc(OCCN(C(C)C)C(C)C)c3)oc2c1 (centres unmarked) [Example 154]",
    "UNIT": "nM",
    "EC50": 424
  },
  {
    "COMPOUND": "CCC1CC(=O)NN=C1c1ccc2nc(-c3ccc(F)c(OC)c3)oc2c1 (centres unmarked) [Example 93]",
    "UNIT": "nM",
    "EC50": 397
  }
]

I = CCC1CC(=O)NN=C1c1ccc2nc(-c3ccc(C(C)C)cc3)oc2c1 (centres unmarked) [Example 175]
II = CCC1OC(=O)NN=C1c1ccc2nc(-c3ccccc3)oc2c1 (stereo in doubt) [Example 79]
Data request: # returns the entry with the larger EC50; inputs I and II Choose, then provide that item's label.
Data returned: I
(I: 462 nM, II: 41 nM)
